system-name: Histone-lysine N-methyltransferase EHMT2 (Homo sapiens) (UniProt Q96KQ7)
Sequence (Q96KQ7 913-1193 limits assumed): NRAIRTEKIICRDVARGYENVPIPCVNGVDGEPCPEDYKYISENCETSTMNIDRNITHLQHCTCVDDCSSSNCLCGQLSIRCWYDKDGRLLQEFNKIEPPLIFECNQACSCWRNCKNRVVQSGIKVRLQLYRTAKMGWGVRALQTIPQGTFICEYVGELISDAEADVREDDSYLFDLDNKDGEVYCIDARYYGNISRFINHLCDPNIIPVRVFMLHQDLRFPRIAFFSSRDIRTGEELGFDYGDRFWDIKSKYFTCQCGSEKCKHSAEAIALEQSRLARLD
assay-notes: qHTS Assay for Inhibitors of Histone Lysine Methyltransferase G9a; note: % is set by controls: 0 for no effect and ±100 for the full control effect; nearly all actives have a fitted effect of over 75% in size
conditions: G9a H3K9 monomethylation, AlphaScreen, 2 h; series mostly up to 102 µM
The whole screen tested about 350,000 compounds, of which about 31,000 (8.9%) were called active. Another 15% or so got no clear call; they are omitted. This is one part of a sample in which actives are shown more often than they occur.
assay-metric: activity, negative = inhibition

Field: example entries. Status: answers known.
compound	activity, negative = inhibition
O=c1c2ccccc2nc(/C=C/c2ccc(F)cc2)n1-c1ccccc1O	inactive
CC(C)C(N)C(=O)OCCOCn1cnc2c(=O)[nH]c(N)nc21 (stereo unspecified)	-19.5% [at 2.33 µM] (inactive)
CCC1(C)CC(=O)NC1=O (stereo unspecified)	28.2% [at 12.7 µM] (inactive)
O=C1/C(=C\c2ccc3c(c2)OCO3)N2CCC1CC2	inactive
C[C@]12CC[C@@H]3c4ccc(O)cc4C[C@@H](CCCCCCCCCS(=O)CCCC(F)(F)C(F)(F)F)C3[C@@H]1CC[C@@H]2O (stereo partly specified)	inactive
C=CCN1C(=O)C2(C(C(=O)OCC)=C(N)Oc3c2c(=O)oc2ccccc32)c2ccccc21 (stereo unspecified)	inactive
O=C1c2ccccc2NC(c2ccccc2O)N1NS(=O)(=O)c1ccccc1 (stereo unspecified)	inactive
CC(=NCC1CCCO1)c1c(O)n(-c2ccccc2)c(=O)[nH]c1=O (stereo unspecified)	inactive

Item CC(C)c1c(CN(C)C(C)Cc2ccccc2)n(C)n(-c2ccccc2)c1=O (stereo unspecified) has what recorded activity, negative = inhibition?
inactive

Which measured activity, negative = inhibition value corresponds to CCN1C[C@]2(COC)C(O)C[C@H](OC)[C@@]34C5C[C@]6(O)C(OC)C(O)[C@](OC(C)=O)(C5C6OC(=O)c5ccccc5)C(C(OC)C23)C14 (stereo partly specified) ?
-10.7% [at 2.33 µM] (inactive)

Which activity, negative = inhibition is reported for this compound? "O=C(Nc1ccc(Cl)cc1C(=O)c1ccccc1)c1cc(Cl)cc(Cl)c1"
inactive

If you can, please state the reported activity, negative = inhibition value of COc1ccc(C2CC(c3cccs3)=NN2c2nc(C)c(C(C)=O)s2)cc1OC (stereo unspecified) .
inactive

What activity, negative = inhibition value was documented for this compound, "CCN1C[C@]2(C)CC[C@H](O)[C@@]34[C@@H]5CC6[C@@H](OC)C[C@@](O)([C@@H]5[C@@H]6O)[C@H](C[C@@H]23)[C@H]14" ?
28.6% [at 21.5 µM] (inactive)
